# maps each entry to its pIC50
SYSTEM_NAME: wild type human RORγt LBD (Homo sapiens, UniProt P51449)
Construct: expressed in transfected cells; host or cells: HEK293T
RUN_DESCRIPTION: RORγt Reporter Assay (GAL4-RORγt LBD luciferase in HEK293T cells)
Format: cell-based
CONDITION_SET: HEK293T cells, compounds for 24 hours; read-out: RORγt reporter Assay, IC50
Scale explanation: pIC50 corresponds to minus log10 of a concentration expressed in moles per litre.

Known results for molecules:
* Cn1cncc1C(c1ccc(Cl)cc1)c1ccc2nc(C#N)c(-c3ccccc3)c(Cl)c2c1 (stereo not drawn) | 6.20
* COc1nc2ccc(C(O)(c3ccc(C(F)(F)F)nc3)c3cncn3C)cc2c(Cl)c1-c1ccc(Cl)s1 (single isomer, unassigned) [Example 14c] | 6.29

query: Find the measured pIC50: item COc1c(-c2ccccc2)c(C(F)(F)F)nc2ccc(C(O)(c3ccc(Cl)cc3)c3cncn3C)cc12 (single isomer, unassigned) [Example 33c] , target or system wild type human RORγt LBD (Homo sapiens, UniProt P51449).
result: 6.89

query: Can you check CC(=O)N1CCC(C(O)(c2ccc(C(F)(F)F)nc2)c2cc(C)c3nc(C#N)c(-c4ccccc4)c(C#N)c3c2)CC1 (single isomer, unassigned) [Example 27c] next?
result: 5.68

query: Can you check COCCN(C)c1nc2ccc(C(O)(c3ccc(Cl)cc3)c3cncn3C)cc2c(Cl)c1-c1ccccc1 (stereo not drawn) next?
result: 7.51

---

SYSTEM_NAME: wild type human RORγt ligand binding domain (RORγt LBD) (Homo sapiens)
Construct: His-tag (N); TurboTEV protease cleavage site (ENLYFQG) (N)
Sequence (P51449 269-508 limits assumed): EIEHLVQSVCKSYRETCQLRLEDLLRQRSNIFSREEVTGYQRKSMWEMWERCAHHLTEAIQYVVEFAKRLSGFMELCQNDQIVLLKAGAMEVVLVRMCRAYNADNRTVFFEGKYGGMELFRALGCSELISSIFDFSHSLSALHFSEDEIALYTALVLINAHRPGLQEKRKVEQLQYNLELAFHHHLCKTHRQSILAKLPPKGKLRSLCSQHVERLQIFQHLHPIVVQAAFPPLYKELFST
RUN_DESCRIPTION: RORγt ThermoFluor® Assay (thermal shift, binding affinity)
CONDITION_SET: pH 7.0, estimated from concentration response curves
# maps each entry to its pKd
Scale explanation: pKd corresponds to minus log10 of a concentration expressed in moles per litre.

Known results for compounds:
• COc1nc2ccc(C(O)(c3ccc(C(F)(F)F)nc3)c3cncn3C)cc2c(Cl)c1-c1cncc(S(C)(=O)=O)c1 (stereo not drawn) = 5.70
• COc1nc2ccc(C(O)(c3ccc(C(F)(F)F)nc3)c3cncn3C)cc2c(Cl)c1-c1ccc(C#N)cc1 (stereo not drawn) = 7.57
• CC(=O)N1CCC(C(O)(c2ccc3nc(C(F)(F)F)c(-c4ccccc4)c(Cl)c3c2)c2cncn2C)CC1 (single isomer, unassigned) [Example 34c] = 7.00
• COc1nc2ccc(C(O)(c3ccc(C(F)(F)F)nc3)c3cncn3C)cc2c(Cl)c1-c1cncnc1 (stereo not drawn) = 6.70
• COc1nc2ccc(C(O)(c3cncn3C)c3cnnn3C)cc2c(Cl)c1-c1cccc(C(F)(F)F)c1 (single isomer, unassigned) [Example 3b] = 9.25

query: Using the record for COc1c(-c2ccccc2)c(C(F)(F)F)nc2ccc(C(O)(c3ccccn3)c3cncn3C)cc12 (single isomer, unassigned) [Example 32b] , report its pKd.
result: 6.11
